- ASSAY NOTES: Inhibition of mouse Hepa-1c1c7 TAOc1Bprc1 mutant cells assessed as cell viability
- Assay type: functional
MEASURE NAME: pIC50
By convention, pIC50 is the negative base-10 log of a molar concentration.

| COMPOUND | pIC50 |
| --- | --- |
| C[S+]([O-])CCCCN=C=S (stereo not drawn) | 5.23 |

Shifting focus to the compound that follows.
Req: Could you share which pIC50 value was measured for O=C(/C=C/c1ccc(O)cc1)c1ccc(O)cc1O ?
Resp: 4.66
